What follows is a collection of pEC50 values obtained with UniProt:P32745.
Sequence (P32745 whole entry): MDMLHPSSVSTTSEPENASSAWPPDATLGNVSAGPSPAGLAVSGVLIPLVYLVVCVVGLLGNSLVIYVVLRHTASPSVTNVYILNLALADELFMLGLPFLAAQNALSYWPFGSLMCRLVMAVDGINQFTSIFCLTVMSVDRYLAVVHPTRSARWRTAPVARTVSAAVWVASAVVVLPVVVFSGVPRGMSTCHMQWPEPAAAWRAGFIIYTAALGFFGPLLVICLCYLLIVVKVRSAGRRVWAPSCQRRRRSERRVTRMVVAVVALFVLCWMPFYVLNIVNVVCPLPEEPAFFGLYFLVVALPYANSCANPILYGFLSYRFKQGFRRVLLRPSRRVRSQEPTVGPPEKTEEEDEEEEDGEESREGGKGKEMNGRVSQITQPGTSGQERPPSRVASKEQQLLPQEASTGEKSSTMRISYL
pEC50: −log10 of the molar value.
Measurement Name: pEC50

These solved cases illustrate the format of a correct answer.
- Structure Smiles: "c1ccc2c3c([nH]c2c1)[C@@H](C1CCOCC1)N[C@@H](c1nc(-c2ccncc2)c[nH]1)C3"
  pEC50: 6.36
- Structure Smiles: "COc1cccc(-c2c[nH]c([C@H]3Cc4c([nH]c5ccccc45)[C@@H](C4CCOCC4)N3)n2)c1"
  pEC50: 7.77
- Structure Smiles: "COc1cccc(-c2c[nH]c([C@H]3Cc4c([nH]c5ccccc45)[C@@H](C4CCOCC4)N3)n2)n1"
  pEC50: 8.51
- Structure Smiles: "Cc1ccc(-c2c[nH]c([C@H]3Cc4c([nH]c5ccccc45)[C@@H](C4CCOCC4)N3)n2)cc1"
  pEC50: 6.95

[P] Cc1nc([C@@]2(c3cnn(C)c3)N[C@@H](c3nc(-c4ccccn4)c[nH]3)Cc3c2[nH]c2ccccc32)no1
[Q] Fc1ccc(-c2n[nH]c([C@H]3Cc4c([nH]c5ccccc45)[C@@H](C4CCOCC4)N3)n2)cc1
Q: Of P and Q , which one carries the higher reported pEC50? Choose, then provide that item's label.
Result: P

Data provenance: ChEMBL document CHEMBL3774320
